# Protocol description: Comparative oral bioavailability in the rat (Example 19)
# Format: in vivo, male Wistar rats
# Condition context: male, Wistar, plasma, po, 5 mg/kg, oral gavage, vehicle 0.5% NaCMC and 0.5% Tween 80 in water
Attribute measured: AUC(0-inf) (µg·h/mL)

1. CNC(=O)c1cc(Oc2ccc(NC(=O)Nc3ccc(Cl)c(C(F)(F)F)c3)c(F)c2)ccn1 [Example 1] ... 21.8
2. CNC(=O)c1cc(Oc2ccc(NC(=O)Nc3ccc(Cl)c(C(F)(F)F)c3)c(F)c2)ccn1.Cl [Example 2] ... 12.1
3. CNC(=O)c1cc(Oc2ccc(NC(=O)Nc3ccc(Cl)c(C(F)(F)F)c3)c(F)c2)ccn1.CS(=O)(=O)O [Example 3] ... 16.8
4. CNC(=O)c1cc(Oc2ccc(NC(=O)Nc3ccc(Cl)c(C(F)(F)F)c3)c(F)c2)ccn1.O=S(=O)(O)c1ccccc1 [Example 4] ... 15.8
